Kindly state polymerase ribozyme fitness (log ratio) for each of the entries shown.
B1: TPR 5TU (parent)
chain: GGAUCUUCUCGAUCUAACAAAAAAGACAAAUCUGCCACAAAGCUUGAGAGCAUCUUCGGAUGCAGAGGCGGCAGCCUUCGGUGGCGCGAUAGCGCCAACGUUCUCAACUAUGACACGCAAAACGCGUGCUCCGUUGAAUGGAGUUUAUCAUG

variants of: B1; assay: polymerase ribozyme fitness, log enrichment relative to wild type (log ratio); higher = more active; in vitro selection for triplet polymerase activity
This sample holds only a part of the variants without activity.
Keep it simple and answer with nothing but the number.

INPUT: Recorded polymerase ribozyme fitness (log ratio) of U55G G84U A106G , please.
OUTPUT: -1.26

INPUT: Entry to check: A37U U61A C85U
OUTPUT: -2.89
